- assay.name: Normal rat biodistribution
- Type: in vivo
- condition.summary: 15 min post-injection, i.v., male Wistar rats, Mean±SD n=3
Listing of entries alongside the reported % ID Heart.

NCCCCCNS(=O)(=O)c1ccc(C(=O)NCCCNC(=O)c2ccc(NN)nc2)cc1 [Compound 24] :: 0.3 + 0.08 % ID
CC(CNCc1ccccc1O)(CNCc1ccccc1O)CNC(=O)c1ccc(S(=O)(=O)NCCCCCN)cc1 [Compound 25] :: 0.16 + 0.01 % ID

Ask | Please report the recorded % ID Heart for CC(=NO)C(C)(C)NCCN(CCNC(=O)C1CCC(CNC(=O)c2ccc(S(=O)(=O)NCCCCCN)cc2)CC1)CCNC(C)(C)C(C)=NO (stereo not shown) [Compound 17] .
Reply | 0.27 + 0.06 % ID

Ask | Please report the recorded % ID Heart for CC(=NO)C(C)(C)NCC(C)(CNC(=O)C1CCC(CNC(=O)c2ccc(S(=O)(=O)NCCCCCN)cc2)CC1)CNC(C)(C)C(C)=NO (stereo not shown) [Compound 8] .
Reply | 0.06 ± 0.04 % ID
